Recorded shrunken log2 fold change, one value per entry.
test system: Escherichia coli TOP10; assay: shrunken log2 fold change of peptide-encoding DNA abundance (4.5 h post-induction vs induction); higher = less antimicrobial activity (less host growth inhibition); conditions: time post-induction: 4.5 h; library: site-saturation at positions 5, 18, 19, 20
Just the number, please, no unit attached.

[[record]]
query_sequence = "RRIRKRPPRLPRPRPRPGFCPRP"
property_measured = "shrunken log2 fold change"
measurement = 0.243


query: Annotate the sequence RRIRRRPPRLPRPRPRPMWDPRP with its measured shrunken log2 fold change.
result: 0.164

* * *

Catalogue of shrunken log2 fold change values
system: Escherichia coli TOP10; assay: shrunken log2 fold change of peptide-encoding DNA abundance (4.5 h post-induction vs induction); higher = less antimicrobial activity (less host growth inhibition); details: time post-induction: 4.5 h; library: site-saturation at positions 5, 18, 19, 20
The answer should be a number; do not append a unit.

Worked cases, shrunken log2 fold change given:
[[record]]
query_sequence = "RRIRCRPPRLPRPRPRPHWKPRP"
property_measured = "shrunken log2 fold change"
measurement = -0.126

[[record]]
query_sequence = "RRIRARPPRLPRPRPRPQMPPRP"
property_measured = "shrunken log2 fold change"
measurement = 0.465

[[record]]
query_sequence = "RRIRLRPPRLPRPRPRPHSKPRP"
property_measured = "shrunken log2 fold change"
measurement = -0.129

[[record]]
query_sequence = "RRIRGRPPRLPRPRPRPTKPPRP"
property_measured = "shrunken log2 fold change"
measurement = 0.0691


query: Fill in: shrunken log2 fold change on Escherichia coli TOP10, entry RRIRRRPPRLPRPRPRPWYKPRP
result: -0.371

query: For Escherichia coli TOP10, give the measured shrunken log2 fold change of the entry RRIRRRPPRLPRPRPRPYCDPRP
result: -0.0241

query: Report measured shrunken log2 fold change on Escherichia coli TOP10; entry: RRIRQRPPRLPRPRPRPKTCPRP
result: -0.0119

query: Find shrunken log2 fold change for RRIRFRPPRLPRPRPRPRPRPRP on Escherichia coli TOP10 and write it down.
result: 1.65

query: Write shrunken log2 fold change of RRIRRRPPRLPRPRPRPQYKPRP ; system used: Escherichia coli TOP10
result: -0.401

query: Fill in shrunken log2 fold change for RRIRFRPPRLPRPRPRPGGMPRP tested with Escherichia coli TOP10.
result: -0.0381

query: Give shrunken log2 fold change; test system Escherichia coli TOP10; sequence RRIRCRPPRLPRPRPRPFPGPRP
result: -0.0106

query: Report shrunken log2 fold change on Escherichia coli TOP10 for this entry: RRIRARPPRLPRPRPRPCRNPRP
result: -0.38

query: // fetch shrunken log2 fold change for RRIRDRPPRLPRPRPRPKYKPRP ; system: Escherichia coli TOP10
result: -0.739

query: Give shrunken log2 fold change only, for RRIRFRPPRLPRPRPRPICRPRP , using Escherichia coli TOP10 data.
result: -0.0837

query: Name the recorded shrunken log2 fold change of RRIRFRPPRLPRPRPRPQFAPRP , assay system Escherichia coli TOP10.
result: 0.0456

query: Report its shrunken log2 fold change with Escherichia coli TOP10 as the test system: RRIRPRPPRLPRPRPRPDWTPRP
result: -0.063

query: Recall the reported shrunken log2 fold change of RRIRHRPPRLPRPRPRPRALPRP when tested on Escherichia coli TOP10.
result: 0.152

query: For Escherichia coli TOP10, give the measured shrunken log2 fold change of the entry RRIRCRPPRLPRPRPRPTDMPRP
result: -0.16

query: Return reported shrunken log2 fold change for target or system Escherichia coli TOP10, item RRIRSRPPRLPRPRPRPHGRPRP .
result: -0.0222

query: Name the value of shrunken log2 fold change reported for RRIRERPPRLPRPRPRPLVWPRP when tested on Escherichia coli TOP10.
result: 0.339

query: Provide shrunken log2 fold change, recorded with Escherichia coli TOP10, of RRIRKRPPRLPRPRPRPDPPPRP
result: 0.927

query: Look up and report shrunken log2 fold change, with Escherichia coli TOP10 as system, for RRIRERPPRLPRPRPRPKLKPRP
result: -0.387

query: Given RRIRERPPRLPRPRPRPCTIPRP , report its shrunken log2 fold change on Escherichia coli TOP10.
result: -0.487

query: Give shrunken log2 fold change only, for RRIRMRPPRLPRPRPRPRIDPRP , using Escherichia coli TOP10 data.
result: 0.0569

* * *

tested on: Escherichia coli TOP10; test: shrunken log2 fold change of peptide-encoding DNA abundance (4.5 h post-induction vs induction); higher = less antimicrobial activity (less host growth inhibition); conditions: time post-induction: 4.5 h; library: site-saturation at positions 5, 18, 19, 20
property-measured: shrunken log2 fold change

[[record]]
query_sequence = "RRIRSRPPRLPRPRPRPRNDPRP"
tested_target = "Escherichia coli TOP10"
property_measured = "shrunken log2 fold change"
measurement = -0.181

[[record]]
query_sequence = "RRIRARPPRLPRPRPRPTQAPRP"
tested_target = "Escherichia coli TOP10"
property_measured = "shrunken log2 fold change"
measurement = 1.06

[[record]]
query_sequence = "RRIRMRPPRLPRPRPRPTKMPRP"
tested_target = "Escherichia coli TOP10"
property_measured = "shrunken log2 fold change"
measurement = 0.745

[[record]]
query_sequence = "RRIRFRPPRLPRPRPRPMAIPRP"
tested_target = "Escherichia coli TOP10"
property_measured = "shrunken log2 fold change"
measurement = -0.226

[[record]]
query_sequence = "RRIRPRPPRLPRPRPRPGPDPRP"
tested_target = "Escherichia coli TOP10"
property_measured = "shrunken log2 fold change"
measurement = 0.28

[[record]]
query_sequence = "RRIRVRPPRLPRPRPRPRTYPRP"
tested_target = "Escherichia coli TOP10"
property_measured = "shrunken log2 fold change"
measurement = -0.309

[[record]]
query_sequence = "RRIRERPPRLPRPRPRPSTLPRP"
tested_target = "Escherichia coli TOP10"
property_measured = "shrunken log2 fold change"
measurement = -0.999

[[record]]
query_sequence = "RRIRWRPPRLPRPRPRPEALPRP"
tested_target = "Escherichia coli TOP10"
property_measured = "shrunken log2 fold change"
measurement = 0.174


query: Complete the entry with shrunken log2 fold change for RRIRQRPPRLPRPRPRPPHIPRP
result: 0.213

query: Give me measured shrunken log2 fold change, please, for this sequence: RRIRCRPPRLPRPRPRPKQEPRP
result: 0.0247

query: Please report shrunken log2 fold change for the following sequence: RRIRYRPPRLPRPRPRPSEMPRP
result: -0.765

* * *

Catalogue of sequences with associated shrunken log2 fold change
test system: Escherichia coli TOP10; test: shrunken log2 fold change of peptide-encoding DNA abundance (4.5 h post-induction vs induction); higher = less antimicrobial activity (less host growth inhibition); settings: time post-induction: 4.5 h; library: site-saturation at positions 5, 18, 19, 20
# output: bare number, no unit

Previously resolved entries follow.
[[record]]
query_sequence = "RRIRVRPPRLPRPRPRPKTPPRP"
measurement = 0.334

[[record]]
query_sequence = "RRIRLRPPRLPRPRPRPPWAPRP"
measurement = 0.632

[[record]]
query_sequence = "RRIRKRPPRLPRPRPRPHNFPRP"
measurement = -0.0511

[[record]]
query_sequence = "RRIRPRPPRLPRPRPRPYHIPRP"
measurement = -0.672


query: Identify the reported shrunken log2 fold change for the following entry. RRIRSRPPRLPRPRPRPLDLPRP
result: -0.154

query: Dear colleague, please send me the reported shrunken log2 fold change for RRIRGRPPRLPRPRPRPFRTPRP when you can.
result: -0.0333

query: Quick one: give measured shrunken log2 fold change for RRIRYRPPRLPRPRPRPPKDPRP
result: 0.0611

query: Answer with the recorded shrunken log2 fold change of RRIRKRPPRLPRPRPRPNAKPRP only.
result: -0.0195

* * *

system: Escherichia coli TOP10; experiment: shrunken log2 fold change of peptide-encoding DNA abundance (4.5 h post-induction vs induction); higher = less antimicrobial activity (less host growth inhibition); details: time post-induction: 4.5 h; library: site-saturation at positions 5, 18, 19, 20;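 note: peptides expressed intracellularly from a pBAD plasmid library in pooled LB shake-flask culture, induced with 0.3% L-arabinose, DNA abundance read by NGS, three biological replicates, DESeq2 with apeglm shrinkage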
property-measured: shrunken log2 fold change
Kindly provide the number alone.

Below: 3 sequences and their reported shrunken log2 fold change.
[[record]]
query_sequence = "RRIRSRPPRLPRPRPRPCYWPRP"
measurement = -0.121

[[record]]
query_sequence = "RRIRKRPPRLPRPRPRPGQAPRP"
measurement = 0.383

[[record]]
query_sequence = "RRIRYRPPRLPRPRPRPSTEPRP"
measurement = -0.435


query: Please report the measured shrunken log2 fold change for RRIRDRPPRLPRPRPRPYMHPRP
result: -0.275

query: Please report the measured shrunken log2 fold change for RRIRARPPRLPRPRPRPAGTPRP
result: 0.308

query: Tell us which shrunken log2 fold change value is on record for RRIRSRPPRLPRPRPRPIKSPRP
result: 0.041

query: Give the value of shrunken log2 fold change reported for the following: RRIRLRPPRLPRPRPRPHMPPRP
result: -0.222

query: Look up and state reported shrunken log2 fold change for RRIRVRPPRLPRPRPRPGQSPRP
result: 0.0938

Value source: the supplement of paper PMC9112550
